Test system: DENV1–4 infections
assay-overview: Cell-based antiviral assay, summary over serotypes
measurement-parameters: range over DENV1–4; read-out: EC50 values, antiviral activities
endpoint: EC50

compound: CC(=O)Oc1ccc2oc(=O)sc2c1 [RK-0404678, (2-Oxo-1,3-benzoxathiol-5-yl) acetate]
reported-result: 6 to 31.9 µM

###

System: NS5 proteins from DENV1–4
Type: biochemical
measurement-parameters: range over NS5 proteins from DENV1–4; read-out: IC50 values, RdRp activities

molecule: CC(=O)Oc1ccc2oc(=O)sc2c1 [RK-0404678, (2-Oxo-1,3-benzoxathiol-5-yl) acetate]
IC50: 46.2 to 445 µM
